Reported pIC50 values for a set of compounds
# test target: human PKCθ full length enzyme (Homo sapiens)
# Construct: human PKCθ full length enzyme (Panvera Cat# P2996); purchased Panvera P2996
# Sequence (Q04759 whole entry): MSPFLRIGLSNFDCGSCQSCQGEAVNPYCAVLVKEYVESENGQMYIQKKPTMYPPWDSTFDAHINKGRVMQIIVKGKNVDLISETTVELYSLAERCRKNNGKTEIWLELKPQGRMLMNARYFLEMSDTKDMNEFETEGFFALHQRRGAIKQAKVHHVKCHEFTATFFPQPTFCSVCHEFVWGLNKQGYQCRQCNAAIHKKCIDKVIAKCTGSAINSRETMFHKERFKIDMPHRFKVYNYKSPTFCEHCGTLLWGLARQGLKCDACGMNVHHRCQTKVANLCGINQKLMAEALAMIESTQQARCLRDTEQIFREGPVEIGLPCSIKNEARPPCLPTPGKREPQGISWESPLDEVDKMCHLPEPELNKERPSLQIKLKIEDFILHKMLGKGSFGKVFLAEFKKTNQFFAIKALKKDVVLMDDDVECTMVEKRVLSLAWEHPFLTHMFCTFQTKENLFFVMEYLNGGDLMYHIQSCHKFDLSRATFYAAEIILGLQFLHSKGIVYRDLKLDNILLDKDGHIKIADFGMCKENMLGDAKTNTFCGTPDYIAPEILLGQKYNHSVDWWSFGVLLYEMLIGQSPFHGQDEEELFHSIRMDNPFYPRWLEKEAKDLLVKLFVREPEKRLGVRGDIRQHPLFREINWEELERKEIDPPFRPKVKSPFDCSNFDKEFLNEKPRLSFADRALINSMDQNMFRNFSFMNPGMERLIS
# assay comment: PKCθ IMAP assay (fluorescence polarization)
# Type: biochemical
# condition summary: human PKCθ full length enzyme, IMAP; average value; read-out: IC50 PKCθ IMAP
pIC50: −log10 of the molar value.
experimental readout: pIC50

N#Cc1cncc(-c2cc3cc(CNCCO)ccc3s2)c1Nc1cccc2[nH]ccc12
8.70
CCCCN(CCCC)Cc1ccc(-c2cncc(C#N)c2Nc2ccc3[nH]ccc3c2C)o1
7.70
COc1ccc(-c2cncc(C#N)c2Nc2ccc3[nH]ccc3c2)cc1OCCNCCc1ccccc1
7.70
N#Cc1cncc(-c2ccc(Br)cc2)c1Nc1ccc2[nH]ccc2c1
7.15
N#Cc1cncc(-c2cccc(OC[C@@H](N)Cc3ccccc3)c2)c1Nc1cccc2[nH]ccc12
7.70
Cc1c(Nc2c(C#N)cncc2-c2ccc(CN3CCN(C(C)C)CC3)o2)ccc2[nH]ccc12
8.70
COc1ccc(-c2cncc(C#N)c2NCCCN2CCN(C)CC2)cc1OC
4.84
CNC(=O)c1ccc(-c2cccc(-c3cncc(C#N)c3Nc3ccc4[nH]ccc4c3)c2)cc1
6.34
Cc1c(Nc2c(C#N)cncc2-c2coc(CN3CCN(C)CC3)c2)ccc2[nH]ccc12
7.92
Cc1c(Nc2c(C#N)cncc2-c2ccnc(Cl)c2)ccc2[nH]ccc12
7.51
Cc1c(Nc2c(C#N)cncc2-c2ccc(NCCN3CCOCC3)nc2)ccc2[nH]ccc12
7.30
Cc1c(Nc2c(C#N)cncc2-c2cc3cc(CNCc4ccccc4)ccc3s2)ccc2[nH]ccc12
8.52
COc1ccc(-c2cncc(C#N)c2Nc2ccc3[nH]ccc3c2)cc1-c1ccc(Cl)cc1
6.74
CCCCNCc1ccc2sc(-c3cncc(C#N)c3Nc3cccc4[nH]ccc34)cc2c1
8.70
N#Cc1cncc(-c2cccc(C(F)(F)F)c2)c1Nc1cccc2[nH]ccc12
7.70
COc1ccc(-c2cncc(C#N)c2Nc2cccc3c2CC(=O)N3)cc1OC
5.09
COc1cc(-c2cncc(C#N)c2Nc2ccc3[nH]ccc3c2C)ccc1OCCN(C)C
8.15
Cc1ccc(S(=O)(=O)n2cc(-c3cncc(C#N)c3Nc3cccc4[nH]ccc34)c3ccccc32)cc1
7.52
CCCCNC(=O)c1ccc(-c2cccc(-c3cncc(C#N)c3Nc3ccc4[nH]ccc4c3)c2)cc1
6.72
Cc1noc(C)c1-c1cncc(C#N)c1Nc1ccc2[nH]ccc2c1
4.96
Cc1c(Nc2c(C#N)cncc2-c2ccc(OCCCCCl)cc2)ccc2[nH]ccc12
7.29
Cc1cc2[nH]ccc2cc1Nc1c(C#N)cncc1-c1ccc(OCCN2CCC(O)CC2)cc1
7.12
Cc1c(Nc2c(C#N)cncc2-c2oc3ccccc3c2C)ccc2[nH]ccc12
7.77
Cc1c(Nc2c(C#N)cncc2-c2ccc(OCCN3CCN(C)CC3)cc2)ccc2[nH]ccc12
8.10
COc1ccc(-c2c[n+]([O-])cc(C#N)c2Nc2ccc3[nH]ccc3c2)cc1OC
6.13
Cc1c(Nc2c(C#N)cncc2-c2ccc(OCCNCCCn3ccnc3)cc2)ccc2[nH]ccc12
8.30
N#Cc1cncc(-c2cccnc2)c1Nc1ccc2[nH]ccc2c1
5.86
Cc1c(Nc2c(C#N)cncc2-c2cc3cc(CN4CCOCC4)ccc3o2)ccc2[nH]ccc12
7.89
N#Cc1cncc(-c2ccc3c(c2)OCO3)c1Nc1ccc2[nH]ccc2c1
7.15
N#Cc1cncc(-c2cc3cc(C=O)ccc3s2)c1Nc1cccc2[nH]ccc12
8.22
N#Cc1cncc(-c2cc3ccccc3[nH]2)c1Nc1cccc2[nH]ccc12
7.22
Cc1c(Nc2c(C#N)cncc2-c2ccc(CN3CCN(C4CCCC4)CC3)o2)ccc2[nH]ccc12
8.40
Cc1c(Nc2c(C#N)cncc2-c2ccc(OCCNCC3CCN(C)CC3)cc2)ccc2[nH]ccc12
8.52
